# Assayed System: human TREX2 (residues M44-A279) (Homo sapiens, UniProt Q9BQ50)
# Construct: human TREX2 (residues M44-A279, expressed in E. coli); His-TEV (His tag with TEV site) (N)
# Sequence (Q9BQ50 whole entry, the tested form may be a part): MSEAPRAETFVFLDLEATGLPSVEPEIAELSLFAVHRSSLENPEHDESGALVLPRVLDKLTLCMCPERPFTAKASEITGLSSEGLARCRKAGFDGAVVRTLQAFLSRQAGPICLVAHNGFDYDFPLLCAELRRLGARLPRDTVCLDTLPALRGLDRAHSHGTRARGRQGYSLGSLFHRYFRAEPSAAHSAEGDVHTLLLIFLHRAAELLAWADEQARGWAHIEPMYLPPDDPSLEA
# Assay Method Text: TREX2 Biochemical Assay (fluorescence, dsDNA substrate degradation)
# Condition Summary: 2.5 nM TREX2, 60 nM dsDNA substrate, 25 minutes at room temperature
Measured Parameter: IC50

CN(Cc1c(Cl)cccc1Cl)c1nc(C(=O)Nc2cnoc2)c(O)c(=O)n1C ... < 1 µM

# map each molecule to its IC50
1. CN(Cc1ccc(C(F)(F)F)cc1)c1nc(C(=O)Nc2cnoc2)c(O)c(=O)n1C
2. CN(Cc1ccc(Cl)c(Cl)c1)c1nc(C(=O)Nc2cnoc2)c(O)c(=O)n1C
3. CN(Cc1cccc(Cl)c1)c1nc(C(=O)Nc2cnoc2)c(O)c(=O)n1C
4. CN(Cc1ccccn1)c1nc(C(=O)Nc2cnoc2)c(O)c(=O)n1C
5. CN(c1nc(C(=O)Nc2cnoc2)c(O)c(=O)n1C)C(c1cccc(C#N)c1)c1ccccc1Cl (single isomer, unassigned) [Example 96]
6. CN(c1nc(C(=O)Nc2cnoc2)c(O)c(=O)n1C)C(c1ccccc1)C1CCOCC1 (single isomer, unassigned) [Example 45]
7. CN(c1nc(C(=O)Nc2cnoc2)c(O)c(=O)n1C)C(c1ccccc1)c1ccccc1Cl (single isomer, unassigned) [Example 39]
8. CN(c1nc(C(=O)Nc2cnoc2)c(O)c(=O)n1C)C(c1ccccn1)c1c(Cl)cccc1Cl (single isomer, unassigned) [Example 61]

1: 10 to 100 µM; 2: 1 to 10 µM; 3: 1 to 10 µM; 4: 1 to 10 µM; 5: < 1 µM; 6: 1 to 10 µM; 7: < 1 µM; 8: < 1 µM
